experimentalDetails: Plasma pharmacokinetics of SU5416 and metabolites in Phase I patients (HPLC UV)
Assay type: in vivo, human
setupConditions: human, plasma, iv, 110 mg m^−2, individual patients, twice weekly i.v. infusion, dose 110 mg m^−2, cycle 1inj8; read-out: Vz (observed)
measuredAttribute: Vd (L)

[[record]]
structure = "Cc1cc(C)c(/C=C2\\C(=O)Nc3ccccc32)[nH]1"
assayresult = 75

